Tested on: 777334-354-R2-J4-PDC tumor spheroids with HUVEC/MSC, viability;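 note: spheroids exposed to compounds for 7 days before readout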
Assay: Anticancer human tumor 777334-354-R2-J4-PDC patient-derived pancreatic adenocarcinoma cell line growth inhibition [GQUAD]
Conditions: second compound 10 µM; first compound 3.16 µM; hits give low values
Lab note: compare viability, T/C with 10%, writing yes (1) if less and no (0) if equal or more.

CC1COCCN1c1cc(C2(S(C)(=N)=O)CC2)nc(-c2ccnc3[nH]ccc23)n1 (stereo unspecified) + CN(C)c1ccc(Nc2c3ccc(NC(=O)CCN4CCCC4)cc3nc3cc(NC(=O)CCN4CCCC4)ccc23)cc1
no (0)
COc1cccc2c1C(=O)c1c(O)c3c(c(O)c1C2=O)CC(O)(C(=O)CO)CC3OC1CC(N)C(O)C(C)O1 (stereo unspecified) + Cc1[nH]c2ccc(F)cc2c1-c1nc2c3cccnc3c3ncccc3c2[nH]1
no (0)
CC1COCCN1c1cc(-c2ccnn2C)c2ccnc(-c3ccn[nH]3)c2n1 (stereo unspecified) + Cc1cnc(CNC(=O)c2c(=O)c3ccc(N4CCCN(C)CC4)nc3n3c2sc2ccccc23)cn1
no (0)
C=CC(=O)N1CCN(c2nc(=O)n(-c3c(C)ccnc3C(C)C)c3nc(-c4c(O)cccc4F)c(F)cc23)C(C)C1 (stereo unspecified) + Cc1cnc(CNC(=O)c2c(=O)c3ccc(N4CCCN(C)CC4)nc3n3c2sc2ccccc23)cn1
no (0)
CC(C)(O)C1CCC(Nc2ccc3ncc(-c4cccc(C(F)(F)F)c4)n3n2)CC1 (stereo unspecified) + Cc1cnc(CNC(=O)c2c(=O)c3ccc(N4CCCN(C)CC4)nc3n3c2sc2ccccc23)cn1
yes (1)
O=c1[nH]cc(F)c(=O)[nH]1 + Cc1[nH]c2ccc(F)cc2c1-c1nc2c3cccnc3c3ncccc3c2[nH]1
no (0)
Nc1ccn(C2OC(CO)C(O)C2(F)F)c(=O)n1 (stereo unspecified) + Cc1cnc(CNC(=O)c2c(=O)c3ccc(N4CCCN(C)CC4)nc3n3c2sc2ccccc23)cn1
no (0)
COc1ncnc(C2CC2)c1-c1ncc2cnn(Cc3ccc(-c4nc(C(F)(F)F)cn4C(C)C)cc3)c2n1 + CN(C)c1ccc(Nc2c3ccc(NC(=O)CCN4CCCC4)cc3nc3cc(NC(=O)CCN4CCCC4)ccc23)cc1
no (0)
C#Cc1c(F)ccc2cc(O)cc(-c3ncc4c(N5CC6CCC(C5)N6)nc(OCC56CCCN5CC(F)C6)nc4c3F)c12 (stereo unspecified) + Cc1cnc(CNC(=O)c2c(=O)c3ccc(N4CCCN(C)CC4)nc3n3c2sc2ccccc23)cn1
yes (1)
C=CCn1c(=O)c2cnc(Nc3ccc(N4CCN(C)CC4)cc3)nc2n1-c1cccc(C(C)(C)O)n1 + Cc1[nH]c2ccc(F)cc2c1-c1nc2c3cccnc3c3ncccc3c2[nH]1
no (0)
C#Cc1c(F)ccc2cc(O)cc(-c3ncc4c(N5CC6CCC(C5)N6)nc(OCC56CCCN5CC(F)C6)nc4c3F)c12 (stereo unspecified) + Cc1[nH]c2ccc(F)cc2c1-c1nc2c3cccnc3c3ncccc3c2[nH]1
yes (1)
O=C(c1cc(Cc2n[nH]c(=O)c3ccccc23)ccc1F)N1CCN(C(=O)C2CC2)CC1 + Cc1[nH]c2ccc(F)cc2c1-c1nc2c3cccnc3c3ncccc3c2[nH]1
no (0)
Cc1cccc(N(C)C(=O)C2C(O)CCN2c2nc(C)cc(C(F)(F)F)c2C#N)c1 (stereo unspecified) + CN(C)c1ccc(Nc2c3ccc(NC(=O)CCN4CCCC4)cc3nc3cc(NC(=O)CCN4CCCC4)ccc23)cc1
no (0)
COc1cccc2c1C(=O)c1c(O)c3c(c(O)c1C2=O)CC(O)(C(=O)CO)CC3OC1CC(N)C(O)C(C)O1 (stereo unspecified) + Cc1cnc(CNC(=O)c2c(=O)c3ccc(N4CCCN(C)CC4)nc3n3c2sc2ccccc23)cn1
no (0)
COc1ncnc(C2CC2)c1-c1ncc2cnn(Cc3ccc(-c4nc(C(F)(F)F)cn4C(C)C)cc3)c2n1 + Cc1[nH]c2ccc(F)cc2c1-c1nc2c3cccnc3c3ncccc3c2[nH]1
no (0)
O=C(c1cc(Cc2n[nH]c(=O)c3ccccc23)ccc1F)N1CCN(C(=O)C2CC2)CC1 + CN(C)c1ccc(Nc2c3ccc(NC(=O)CCN4CCCC4)cc3nc3cc(NC(=O)CCN4CCCC4)ccc23)cc1
no (0)
C=CCn1c(=O)c2cnc(Nc3ccc(N4CCN(C)CC4)cc3)nc2n1-c1cccc(C(C)(C)O)n1 + Cc1cnc(CNC(=O)c2c(=O)c3ccc(N4CCCN(C)CC4)nc3n3c2sc2ccccc23)cn1
no (0)
CC(C)n1c(=O)n(C)c2cnc3cc(F)c(-c4ccc(OCCCN5CCCCC5)nc4)cc3c21 + Cc1[nH]c2ccc(F)cc2c1-c1nc2c3cccnc3c3ncccc3c2[nH]1
no (0)
Nc1ccn(C2OC(CO)C(O)C2(F)F)c(=O)n1 (stereo unspecified) + CN(C)c1ccc(Nc2c3ccc(NC(=O)CCN4CCCC4)cc3nc3cc(NC(=O)CCN4CCCC4)ccc23)cc1
no (0)
CC(C)(O)C1CCC(Nc2ccc3ncc(-c4cccc(C(F)(F)F)c4)n3n2)CC1 (stereo unspecified) + Cc1[nH]c2ccc(F)cc2c1-c1nc2c3cccnc3c3ncccc3c2[nH]1
yes (1)
COc1cc(C2c3cc4c(cc3C(OC3OC5COC(C)OC5C(O)C3O)C3COC(=O)C23)OCO4)cc(OC)c1O (stereo unspecified) + Cc1cnc(CNC(=O)c2c(=O)c3ccc(N4CCCN(C)CC4)nc3n3c2sc2ccccc23)cn1
no (0)
